Where do these numbers come from? They come from patent US20250282799A1.

# Tested on: KRAS G12V dependent lung adenocarcinoma cell line, NCI-H441
# TEST DETAILS: Cellular pERK (Thr202/Tyr204) FRET/HTRF assay
# Format: cell-based
# CONDITION SUMMARY: Homo sapiens, NCI-H441, cellular pERK (Thr202/Tyr204) HTRF, NCI-H441 cells
pIC50: −log10 of the molar value.
Listed here: items and their measured pIC50.

Solved cases (5 shown):
[2H]C([2H])([2H])Oc1c(F)c(F)cc2cccc(-c3ncc4c(N5CCCC[C@H]6[C@H](F)[C@H]65)nc(OC([2H])([2H])[C@@]56CCCN5C[C@H](F)C6)nc4c3F)c12; 6.30 to 7.30
[2H]C([2H])(Oc1nc(N2CCOC[C@H]3[C@H](F)[C@H]32)c2cnc(-c3cc(N)cc4ccc(F)c(C#C)c34)cc2n1)[C@@]12CCCN1C[C@H](F)C2; > 7.30
[2H]C([2H])(Oc1nc(N2CCCO[C@H]3[C@H](F)[C@H]32)c2cnc(-c3cc(N)cc4c(F)cc(F)c(C#C)c34)c(F)c2n1)[C@@]12CCCN1C[C@H](F)C2; > 7.30
[2H]C([2H])(Oc1nc(N2CCOC[C@H]3[C@H](F)[C@H]32)c2cnc(-c3cc(N)cc4ccc(F)c(C#C)c34)c(C)c2n1)[C@@]12CCCN1C[C@H](F)C2; > 7.30
Cc1c(F)c(N)cc(-c2ncc3c(N4CCCC[C@H]5[C@H](F)[C@H]54)nc(OC[C@]45C/C(=C\F)CN4CCC54CC4)nc3c2F)c1C(F)(F)F; 6.30 to 7.30

pIC50 reading for [2H]C([2H])(Oc1nc(N2CCOC[C@H]3[C@H](F)[C@H]32)c2cnc(-c3cc(N)cc4cccc(C#C)c34)c(F)c2n1)[C@@]12CCCN1[C@H](C)[C@H](F)C2 : > 7.30

pIC50 reading for [2H]C([2H])([2H])Oc1c(F)cc(F)c2cc(N)cc(-c3ncc4c(N5CCOC[C@H]6[C@H](F)[C@H]65)nc(OC([2H])([2H])[C@@]56CCCN5C[C@H](F)C6)nc4c3F)c12 : > 7.30

pIC50 reading for [2H]C([2H])(F)Oc1c(F)ccc2cc(N)cc(-c3ncc4c(N5CCOC[C@H]6[C@H](F)[C@H]65)nc(OC[C@]56C/C(=C/F)CN5CCC65CC5)nc4c3F)c12 : > 7.30

pIC50 reading for [2H]C([2H])([2H])Oc1c(F)c(F)c(F)c2cc(N)cc(-c3ncc4c(N5CCOC[C@H]6[C@H](F)[C@H]65)nc(OC[C@@]56CCCN5C/C(=C/F)C6)nc4c3F)c12 : > 7.30

pIC50 reading for [2H]C([2H])(Oc1nc(N2CCOC[C@@H]3[C@@H](F)[C@@H]32)c2cc(Cl)c(-c3cc(N)c(F)c(C)c3C(F)(F)F)c(F)c2n1)[C@@]12CCCN1C[C@H](F)C2 : 5.00 to 6.30
